Reported Ki values, UniProt:P00742.
Sequence (P00742 41-179 limits assumed): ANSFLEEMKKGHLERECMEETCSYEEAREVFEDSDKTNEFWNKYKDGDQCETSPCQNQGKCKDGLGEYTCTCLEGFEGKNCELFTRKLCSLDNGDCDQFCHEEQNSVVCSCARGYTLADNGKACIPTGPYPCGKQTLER
Sequence (P00742 235-488 limits assumed): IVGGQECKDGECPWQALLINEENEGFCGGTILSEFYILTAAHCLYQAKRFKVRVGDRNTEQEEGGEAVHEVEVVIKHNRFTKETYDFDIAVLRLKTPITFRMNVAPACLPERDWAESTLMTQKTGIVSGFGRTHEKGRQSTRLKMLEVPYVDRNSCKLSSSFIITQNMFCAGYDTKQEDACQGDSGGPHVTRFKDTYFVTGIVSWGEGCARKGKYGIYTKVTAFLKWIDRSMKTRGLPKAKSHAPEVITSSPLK
value_kind: Ki (nM)

Previously resolved entries follow.
compound | Ki / nM
Cc1cc(C)cc(CCN(CC(=O)NC(CCCNC=N)B(O)O)C(=O)CCc2ccccc2)c1 (configuration not stated) | 30
Cc1cc(C)cc(C(C)(C)CN(CC(=O)NC(CCC/N=C/N)B(O)O)C(=O)CCc2ccccc2)c1 (configuration not stated) | 392

1 = N=C(N)NCCCC(NC(=O)CN(CC1(c2ccccc2)CC1)C(=O)CCc1ccccc1)B(O)O (configuration not stated)
2 = NCCCCC(NC(=O)CN(CCc1ccccc1)C(=O)CCc1ccccc1)B(O)O (configuration not stated)
Param pair: 1 , 2 . Output: the one whose Ki is numerically greater. // output: label of the selected item
2

P = Cc1cc(C)cc(C(C)(C)CN(CC(=O)NC(CCCN=C(N)N)B(O)O)C(=O)CCc2ccccc2)c1 (configuration not stated)
Q = NCCCCC(NC(=O)CN(CC1(c2ccccc2)CCCC1)C(=O)CCc1ccccc1)B(O)O (configuration not stated)
R = N=CNCCCC(NC(=O)CN(CCc1ccccc1)C(=O)CCc1ccccc1)B(O)O (configuration not stated)
Falling order of Ki, please. // format: requested-order list of labels
Q, P, R
